Where do the numbers come from? From PubChem BioAssay (EPA / NIEHS).

- Read-out: Interleukin-8 (IL8), CXCL8 (gene 3576)
- assay_name: BSK_SAg_IL8: BioMAP Diversity Plus: SAg Assay for Interleukin-8 (IL8) Biomarker Activity (AID 2283094)
- condition_description: primary human HUVEC with PBMC; actives raise or lower the signal
Calls of active or inactive are those of the source. The calls were made as follows: active = hit-call score of the fitted dose curve at least 0.9, where 1 is the maximum; inactive = score below 0.9.
A correct response names exactly one class from 1.0 for active, 0.0 for inactive

As a guide, the following entries are already answered.
molecule=CNC(=O)CSP(=S)(OC)OC category_label=0.0
molecule=CCCN(CCOc1c(Cl)cc(Cl)cc1Cl)C(=O)n1ccnc1 category_label=1.0
molecule=CCCN(CCC)c1c([N+](=O)[O-])cc(C(F)(F)F)cc1[N+](=O)[O-] category_label=1.0
molecule=COP(=O)(OC)OC=C(Cl)Cl category_label=0.0
molecule=COc1nn(CSP(=S)(OC)OC)c(=O)s1 category_label=0.0
molecule=COP(=S)(OC)Oc1ccc([N+](=O)[O-])cc1 category_label=1.0
molecule=Oc1ccc(Cl)cc1Cc1ccccc1 category_label=1.0
molecule=Clc1ccccc1-c1nnc(-c2ccccc2Cl)nn1 category_label=0.0
molecule="CCC(C)(NC(=O)c1cc(Cl)c(C)c(Cl)c1)C(=O)CCl (stereo not drawn)" category_label=1.0
molecule=COC(=O)c1ccccc1S(=O)(=O)NC(=O)N(C)c1nc(C)nc(OC)n1 category_label=0.0

Record lookup: outcome of this test for N#CN ?
0.0

Fill in: this test's call for [2H]C1([2H])[n+]2ccccc2-c2cccc[n+]2C1([2H])[2H] is ___
0.0

Hello, I am checking results. What call was entered for ClC1C(Cl)C(Cl)C(Cl)C(Cl)C1Cl (stereo not drawn) ?
0.0

###

- Read-out: Nuclear factor erythroid 2-related factor 2 (Homo sapiens)
- assay_name: LTEA_HepaRG_NFE2L2: Life Technologies and Expression Analysis (LTEA) Assay for Nuclear factor erythroid 2-related factor 2 (NFE2L2) Transcription Factor using HepaRG (AID 2283527)
- condition_description: mRNA level, 48 h; actives raise or lower the signal
Active and inactive are the calls of the source. Rule for the calls: active = hit-call score of the fitted dose curve at least 0.9, where 1 is the maximum; inactive = score below 0.9.
property: AC50

Example cases with answers are listed next.
compound=Cc1[nH]c(=O)n(C(C)(C)C)c(=O)c1Cl result="50 µM (active)"
compound="O=C(NC(=O)c1c(F)cccc1F)Nc1ccc(OC(F)(F)C(F)OC(F)(F)F)c(Cl)c1 (stereo unspecified)" result=inactive
compound=CC(C)OC(=O)Nc1cccc(Cl)c1 result=inactive
compound="ClC1C(Cl)C(Cl)C(Cl)C(Cl)C1Cl (stereo unspecified)" result=inactive
compound=C[C@H]1[C@H](c2ccc(Cl)cc2)SC(=O)N1C(=O)NC1CCCCC1 result="73 µM (active)"

Would you kindly share the measured AC50 for CCOC1Oc2ccc(OS(C)(=O)=O)cc2C1(C)C (stereo unspecified) ?
inactive

###

- assay_name: APR_HepG2_CellLoss_1hr: Apredica 1-hour HepG2 Assay for Cell Loss (AID 2282668);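 also: curves fitted both ways against DMSO so gain or loss of cells counts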
- condition_description: high-content imaging
Active and inactive are the calls of the source. Rule for the calls: active = hit-call score of the fitted dose curve at least 0.9, where 1 is the maximum; inactive = score below 0.9.
Bench note: report the call from 1 for active, 0 for inactive

# example entries with known answers
compound=COc1nn(CSP(=S)(OC)OC)c(=O)s1 category_label=0
compound="O=C(NC(=O)c1c(F)cccc1F)Nc1ccc(OC(F)(F)C(F)OC(F)(F)F)c(Cl)c1 (stereo not given)" category_label=0
compound=CCN(CC)C(=O)SCc1ccc(Cl)cc1 category_label=0
compound=CCC(C)(C)C(=O)OC1=C(c2ccc(Cl)cc2Cl)C(=O)OC12CCCCC2 category_label=0
compound=Cc1[nH]c(=O)n(C(C)(C)C)c(=O)c1Cl category_label=0
compound="CC(C)(C)C(O)/C(=C\\c1ccc(Cl)cc1Cl)n1cncn1 (stereo not given)" category_label=0
compound=COC(=O)c1ccccc1CS(=O)(=O)NC(=O)Nc1nc(OC)cc(OC)n1 category_label=0
compound=CCS(=O)(=O)c1cccnc1S(=O)(=O)NC(=O)Nc1nc(OC)cc(OC)n1 category_label=0
compound=CCCN(CCC)c1c([N+](=O)[O-])cc(C(F)(F)F)cc1[N+](=O)[O-] category_label=0
compound=CC(C)OC(=O)Nc1cccc(Cl)c1 category_label=0

Record lookup: outcome of this test for O=C1c2ccccc2C(=O)N1SC(Cl)(Cl)Cl ?
0

Call for entry COC(=O)c1ccccc1S(=O)(=O)NC(=O)Nc1nc(C)nc(OC)n1 :
0

Per the assay record, what outcome was assigned to CNC(=O)Oc1ccccc1OC(C)C ?
0

Write down the call the test reported for this compound. Item: Clc1ccccc1-c1nnc(-c2ccccc2Cl)nn1
0

Which outcome was assigned to COc1cc(OC)nc(NC(=O)NS(=O)(=O)c2cc(NC=O)ccc2C(=O)N(C)C)n1 in this test?
0

Please share the test call associated with CCOc1nc(NC)nc(NC(=O)NS(=O)(=O)c2ccccc2C(=O)OC)n1 .
0

// param item: CNC(=O)/C=C(\C)OP(=O)(OC)OC ; yields the recorded call
0

Recorded call for CNC(=O)Oc1cccc(N=CN(C)C)c1 ?
0

Hi, do you know how O=C(O)COc1ccc(Cl)cc1Cl came out in this test?
0

Assay outcome for CCCN(CCOc1c(Cl)cc(Cl)cc1Cl)C(=O)n1ccnc1 : what was it?
0

How was Oc1cc(Cl)ccc1Oc1ccc(Cl)cc1Cl classified in this test?
1

Could you check what this test reported for COP(=O)(OC)OC=C(Cl)Cl ?
0

Please share the test call associated with N#CN .
0

Dear all, I need the recorded test outcome for O=S1OCC2C(CO1)C1(Cl)C(Cl)=C(Cl)C2(Cl)C1(Cl)Cl (stereo not given) , thank you.
0

Which outcome did this test record for the compound CNC(=O)CSP(=S)(OC)OC ?
0
